Every entry's value here was drawn from paper PMC7979765.

method_summary: Pharmacokinetic analyses in mice (PO suspension, IV, SC)
Format: in vivo, mouse
settings: female, CD-1, mouse, in vivo, sc, 25 mg/kg, SC (25 mg/kg), 4 hrs, mean of 3 animals; read-out: MBX 4132 Concentrations in Mouse Plasma, Mean
readout_label: concentration at 4 h (ng/mL)
Numeric only. Scale: ng/mL

Identify measured concentration at 4 h associated with O=C(Nc1nnc(-c2ccc(F)cc2)o1)N1CCc2ccccc2C1 [MBX 4132]
3010

* * *

method_summary: Pharmacokinetic analyses in mice (PO suspension, IV, SC)
Format: in vivo, mouse
settings: mouse, in vivo, po, 10 mg/kg, PO (10 mg/kg), 8 hrs, individual animals; read-out: MBX 4132 Concentrations in Mouse Plasma
readout_label: concentration at 8 h (ng/mL)
Numeric only. Scale: ng/mL

Identify measured concentration at 8 h associated with O=C(Nc1nnc(-c2ccc(F)cc2)o1)N1CCc2ccccc2C1
4350

* * *

method_summary: Multiplexed cytotoxicity assay (nuclei, ROS, TMRE)
Format: cell-based, human
settings: human, human primary hepatocytes, 1.01E-02 μM; read-out: Mean MMP inhibition (fold induction)
readout_label: fold induction at 24 h, 0.0101 μM

Identify measured fold induction at 24 h, 0.0101 μM associated with O=C(Nc1nnc(-c2ccc(F)cc2)o1)N1CCc2ccccc2C1 [MBX-4132]
1

* * *

method_summary: Pharmacokinetic analyses in mice (PO suspension, IV, SC)
Type: in vivo, mouse
settings: female, CD-1, mouse, in vivo, sc, 25 mg/kg, SC (25 mg/kg), 0.083 hrs, individual animals; read-out: MBX 4132 Concentrations in Mouse Plasma
readout_label: concentration at 0.083 h (µg/mL)
Numeric only. Scale: µg/mL

Identify measured concentration at 0.083 h associated with O=C(Nc1nnc(-c2ccc(F)cc2)o1)N1CCc2ccccc2C1 [MBX 4132]
1.17

* * *

method_summary: Pharmacokinetic analyses in mice (PO suspension, IV, SC)
Type: in vivo, mouse
settings: female, CD-1, mouse, in vivo, sc, 10 mg/kg, SC (10 mg/kg), 24 hrs, individual animals; read-out: MBX 4132 Concentrations in Mouse Plasma
Method: Female CD-1 mice as above were fasted for 2 h prior, and 4 h after dosing. […] […], 3 mice from each group were euthanized by CO2 inhalation, blood was collected by cardiac puncture into K2EDTA collection tubes, and protein was precipitated and analysed by LC/MS-MS for plasma concentrations of MBX-4132. Data were analysed using WinNonLin. […] Data were analysed using WinNonLin.
readout_label: concentration at 24 h (ng/mL)
Numeric only. Scale: ng/mL

Identify measured concentration at 24 h associated with O=C(Nc1nnc(-c2ccc(F)cc2)o1)N1CCc2ccccc2C1 [MBX 4132]
599
